- target-under-test: D(2) dopamine receptor (Homo sapiens, UniProt P14416)
- Sequence (P14416 whole entry): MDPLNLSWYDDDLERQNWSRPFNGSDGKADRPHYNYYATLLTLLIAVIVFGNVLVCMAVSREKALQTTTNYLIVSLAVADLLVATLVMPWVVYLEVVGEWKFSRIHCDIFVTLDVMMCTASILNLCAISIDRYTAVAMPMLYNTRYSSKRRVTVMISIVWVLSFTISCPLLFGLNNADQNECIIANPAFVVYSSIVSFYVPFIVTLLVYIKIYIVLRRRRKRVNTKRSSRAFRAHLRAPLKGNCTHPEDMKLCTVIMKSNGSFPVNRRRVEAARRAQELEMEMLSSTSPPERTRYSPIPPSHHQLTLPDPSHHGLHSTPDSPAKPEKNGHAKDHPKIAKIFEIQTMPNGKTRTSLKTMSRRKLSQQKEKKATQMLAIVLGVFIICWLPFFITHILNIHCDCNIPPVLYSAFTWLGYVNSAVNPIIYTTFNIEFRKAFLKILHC
- test-details: Displacement of [3H]-methyl-spiperone from human dopamine D2L receptor expressed in HEK293 cell membranes at […] after 1 hr by radioligand binding assay
measured-metric: inhibition (%)
// note: answer is a bare numeric in %

Please review the following examples before continuing.
INSERT INTO measurements (molecule, measured_metric, assay_result) VALUES
  ('CN(C)[C@H]1c2cc3c(ccn3S(=O)(=O)c3ccccc3)cc2[C@@H]1CCO (relative stereo)', 'inhibition', 19),
  ('CN(C)[C@@H]1c2cc3c(ccn3S(=O)(=O)c3ccccc3)cc2[C@@H]1CCO (relative stereo)', 'inhibition', 20),
  ('CN[C@H]1c2cc3ccn(S(=O)(=O)c4ccccc4)c3cc2[C@H]1CCO (relative stereo)', 'inhibition', 30);

Problem: Lab request: please report inhibition under test system D(2) dopamine receptor (Homo sapiens, UniProt P14416) for CN(C)[C@@H]1c2cc3ccn(S(=O)(=O)c4ccccc4)c3cc2[C@H]1CCO (relative stereo)
Result: 22

---

- target-under-test: 5-hydroxytryptamine receptor 6 (Homo sapiens, UniProt P50406)
- Sequence (P50406 whole entry): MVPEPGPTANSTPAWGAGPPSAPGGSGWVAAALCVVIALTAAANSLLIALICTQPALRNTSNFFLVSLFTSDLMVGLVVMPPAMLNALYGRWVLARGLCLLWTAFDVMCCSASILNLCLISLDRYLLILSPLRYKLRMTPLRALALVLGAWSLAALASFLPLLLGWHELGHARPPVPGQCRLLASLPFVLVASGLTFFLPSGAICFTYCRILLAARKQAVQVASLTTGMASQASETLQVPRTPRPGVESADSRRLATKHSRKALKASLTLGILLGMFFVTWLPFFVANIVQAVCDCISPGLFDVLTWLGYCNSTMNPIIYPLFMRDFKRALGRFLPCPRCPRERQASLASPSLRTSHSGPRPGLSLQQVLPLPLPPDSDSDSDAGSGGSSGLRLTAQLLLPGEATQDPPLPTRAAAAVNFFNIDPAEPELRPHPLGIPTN
pKi: −log10 of the molar value.
We use 7 as the dividing line for pKi: on or above the line is label 1, below is label 0.

Solved entries (count: 6):
INSERT INTO results (compound, label_value) VALUES
  ('CN[C@H]1c2c(ccc3c2ccn3S(=O)(=O)c2ccccc2)[C@@H]1CCO (relative stereo)', 'label 0'),
  ('CN[C@H]1c2cc3ccn(S(=O)(=O)c4ccccc4)c3cc2[C@H]1CCO (relative stereo)', 'label 1'),
  ('O=S(=O)(c1ccccc1)n1ccc2c3c(ccc21)[C@H]1CCNCC[C@@H]31 (relative stereo)', 'label 1'),
  ('CNCC1Cc2cc3ccn(S(=O)(=O)c4cccc5ccccc45)c3cc21 (stereo unspecified)', 'label 1'),
  ('CN[C@@H]1c2ccc3c(ccn3S(=O)(=O)c3ccccc3)c2[C@@H]1CCO', 'label 1'),
  ('CN(C)[C@@H]1c2cc3c(ccn3S(=O)(=O)c3ccccc3)cc2[C@@H]1CCO (relative stereo)', 'label 0');

Could you now look at the following compound, please?
Problem: hey, is pKi for this one >= 7? CN(C)[C@@H]1c2cc3ccn(S(=O)(=O)c4ccccc4)c3cc2[C@H]1CCO (relative stereo)
Result: label 1

---

Dear all, this message contains Ki results, target or system 5-hydroxytryptamine receptor 6 (Homo sapiens, UniProt P50406).
Answer in nM, number only, no unit symbol.

INSERT INTO results (compound, unit_abbrev, assay_result) VALUES
  ('O=S(=O)(c1ccccc1)n1ccc2cc3c(cc21)[C@H]1CCNCC[C@@H]31', 'nM', 158);

Problem: Which Ki is reported with 5-hydroxytryptamine receptor 6 (Homo sapiens, UniProt P50406) for this entry: CN[C@@H]1c2cc3c(ccn3S(=O)(=O)c3ccccc3)cc2[C@@H]1CCO (relative stereo) ?
Result: 126

Problem: Kindly state the measured Ki obtained for CC(=O)Nc1ccc(CCN(C)CC2Cc3ccc4c(ccn4S(=O)(=O)c4ccccc4)c32)cc1 (centres undefined) with 5-hydroxytryptamine receptor 6 (Homo sapiens, UniProt P50406).
Result: 79.4

Problem: Value wanted: Ki (5-hydroxytryptamine receptor 6 (Homo sapiens, UniProt P50406)) of entry CN[C@H]1c2cc3c(ccn3S(=O)(=O)c3ccccc3)cc2[C@@H]1CCO (relative stereo)
Result: 158

The measured values listed here are drawn from ChEMBL document CHEMBL3871306.
